Data origin, for the record: patent US20120039802A1

# test_target: T1, cMet-Fc fusion protein (extracellular domain of the cMet receptor expressed as an Fc-fusion protein) (human, UniProt P08581 25-932)
# T1 construct: extracellular domain; also called soluble cMet-Fc-fusion protein; soluble cMet receptor; not shown: Fc part
# T1 sequence (P08581 25-932): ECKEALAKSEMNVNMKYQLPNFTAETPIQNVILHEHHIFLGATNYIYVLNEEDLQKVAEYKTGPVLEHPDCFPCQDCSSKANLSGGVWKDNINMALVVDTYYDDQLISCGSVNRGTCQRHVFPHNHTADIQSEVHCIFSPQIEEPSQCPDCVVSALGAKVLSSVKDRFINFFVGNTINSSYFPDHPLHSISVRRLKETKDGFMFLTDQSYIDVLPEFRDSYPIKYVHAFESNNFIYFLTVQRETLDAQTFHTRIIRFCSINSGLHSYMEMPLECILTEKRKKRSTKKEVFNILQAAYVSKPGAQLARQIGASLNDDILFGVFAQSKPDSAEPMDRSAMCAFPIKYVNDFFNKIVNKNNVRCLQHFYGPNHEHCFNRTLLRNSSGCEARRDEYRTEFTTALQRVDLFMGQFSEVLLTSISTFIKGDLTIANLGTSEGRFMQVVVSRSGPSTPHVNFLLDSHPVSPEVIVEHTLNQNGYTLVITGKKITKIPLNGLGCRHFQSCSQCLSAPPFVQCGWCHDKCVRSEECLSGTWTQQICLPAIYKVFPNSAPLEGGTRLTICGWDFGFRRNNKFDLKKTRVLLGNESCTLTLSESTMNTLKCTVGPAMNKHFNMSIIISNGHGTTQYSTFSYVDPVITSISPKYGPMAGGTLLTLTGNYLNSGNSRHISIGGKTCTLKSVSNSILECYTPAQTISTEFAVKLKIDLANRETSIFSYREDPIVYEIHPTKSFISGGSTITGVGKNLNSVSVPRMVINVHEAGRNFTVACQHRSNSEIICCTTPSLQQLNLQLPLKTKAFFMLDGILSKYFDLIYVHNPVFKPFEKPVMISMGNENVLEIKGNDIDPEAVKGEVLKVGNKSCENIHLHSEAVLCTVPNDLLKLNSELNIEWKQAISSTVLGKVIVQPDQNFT
# protocol_notes: phage ELISA on cMet-Fc, competitor HGF 100 ng/mL
Friendly reminder: % of binding in the absence of HGF below 80% is condition met, at or above is condition not met.

Prompt line: Decide: % of binding in the absence of HGF of GDASMCYDGLALRWDQCWPHDP [531-E11 peptide-displaying phage (SEQ ID NO: 404)] strictly below 80%?
Response line: condition met
